# Tested on: COLO 205 colon
# assay.details: NCI-60 one-dose screen, 48 h (100 = growth as untreated, 0 = no growth, -100 = all killed)
# condition.parameters: 10 µM
Compounds without any hit were thinned out: in the full panel of roughly 83,000, 20% have a hit.
Quick reference: growth of the listed items.
State just the number; it will be interpreted in %.

Worked cases, growth given:
[[record]]
molecule = "O=C(NCCc1nccs1)c1cnc2c(S)cccc2c1"
readout_label = "growth"
endpoint_value = -52.4

[[record]]
molecule = "N#C/C(=C/c1cc([N+](=O)[O-])ccc1Cl)C(N)=O"
readout_label = "growth"
endpoint_value = 117

[[record]]
molecule = "CCc1c(C)[nH]c(=O)c(C(N)=O)c1C#N"
readout_label = "growth"
endpoint_value = 110

[[record]]
molecule = "Cc1ccc(C)c(S(=O)(=O)NC2c3ccccc3Oc3ccccc32)c1"
readout_label = "growth"
endpoint_value = 99.2


Consider the additional compound presented here.
Q) Need growth, item `C=CCn1ccc(=O)nc1SC`
A) 106

###

# Test system: SW-620 colon
# assay.details: NCI-60 one-dose screen, 48 h
# condition.parameters: 10 µM
The panel holds about 83,000 compounds, 20% with a hit somewhere; the sample as a whole holds those more often. The source made the active and inactive calls. Rule for the calls: active = growth percent below 10; inactive = the rest.
Your response should consist of one outcome taken from active, inactive

Look over these answered cases.
[[record]]
molecule = "Cc1cc(=O)oc2cc(OCc3cn(CC(O)CO)nn3)ccc12 (centres undefined)"
qualitative_label = "inactive"

[[record]]
molecule = "Nc1nc2c(ncn2C2OC3COP(=O)(O)OC4C(COP(=O)(O)OC2C3O)OC(n2cnc3c(N)ncnc32)C4O)c(=O)[nH]1 (centres undefined)"
qualitative_label = "inactive"

[[record]]
molecule = "CC(=O)[C@H]1CC[C@H]2[C@@H]3CC[C@@H]4CC=C(C=O)C[C@]4(C)[C@H]3CC[C@]12C"
qualitative_label = "inactive"

[[record]]
molecule = "COc1cc(CSc2nc3ccc(C)cc3c(=O)n2-c2ccccc2)cc(OC)c1OC"
qualitative_label = "inactive"

[[record]]
molecule = "c1ccc(OCCC[P+](c2ccccc2)(c2ccccc2)c2ccccc2)cc1"
qualitative_label = "inactive"

[[record]]
molecule = "C=CCOc1ccc2c(c1)CC[C@@H]1[C@@H]2CC[C@]2(C)C(=O)/C(=N/O)C[C@@H]12"
qualitative_label = "inactive"

[[record]]
molecule = "Cc1ccc(/C=C2\\CN(Cc3cn(CCNc4ccnc5cc(Cl)ccc45)nn3)C/C(=C\\c3ccc(C)cc3)C2=O)cc1"
qualitative_label = "active"

[[record]]
molecule = "COc1cc(CSc2nc3ccc(C)cc3c(=O)n2Cc2ccccc2)cc(OC)c1OC"
qualitative_label = "inactive"


Q) // outcome(item) with item = `O=[N+]([O-])c1ccc(-c2nc(-c3ccccc3)c(-c3ccccc3)n2-c2ccccc2)cc1`
A) inactive

Q) Same thing, different molecule: `COc1ccc(-c2nnc(COc3ccc(NC(=O)Nc4ccccc4)cc3F)o2)cc1`
A) inactive

Q) Same thing, different molecule: `Cn1cnc([N+](=O)[O-])c1/C=C1\Oc2ccc(Cl)cc2C1=O`
A) inactive

###

# Test system: MCF7 breast
# assay.details: NCI-60 one-dose screen, 48 h
# condition.parameters: 10 µM
The panel holds about 83,000 compounds, 20% with a hit somewhere; the sample as a whole holds those more often. Activity calls are given as the source filed them. The calls were made as follows: active = growth percent below 10; inactive = the rest.
Your response should consist of one outcome taken from TRUE = active, FALSE = inactive

Look over these answered cases.
[[record]]
compound = "Brc1ccc(-c2cn3ccnc3c(-c3ccc(Br)cc3)n2)cc1"
system_under_test = "MCF7 breast"
qualitative_label = "FALSE"

[[record]]
compound = "C=CCn1c(C)nc2cc(Nc3nc(Nc4ccc5nc(C)n(CC=C)c5c4)c4ccccc4n3)ccc21"
system_under_test = "MCF7 breast"
qualitative_label = "TRUE"

[[record]]
compound = "CCN(CCCNC(=O)Cc1cc(=O)oc2cc(N(C)C)ccc12)CCNc1ccnc2cc(Cl)ccc12"
system_under_test = "MCF7 breast"
qualitative_label = "FALSE"


Q) // outcome(item) with item = `Cc1ccc2nc3[nH]c(=O)[nH]c(=O)c3c(N)c2c1`
A) FALSE

Q) Same thing, different compound: `CC(C)C[C@H](NC(=O)Cn1ccc(Nc2ccccc2)cc1=O)B(O)O`
A) FALSE

Q) Same thing, different compound: Cc1cc(=O)oc2cc(OCc3cn(CC(O)CO)nn3)ccc12 (configuration not stated)
A) FALSE

Q) Same thing, different compound: O=C(c1ccccc1)C(Nc1ccccc1)c1ccccc1 (configuration not stated)
A) FALSE

Q) Same thing, different compound: `Cn1cnc([N+](=O)[O-])c1Sc1nnc(-c2ccccc2)c(-c2ccccc2)n1`
A) FALSE

Q) Same thing, different compound: `CCCCCCCCCCCCCCCCn1cc[n+](C)c1`
A) TRUE

Q) Same thing, different compound: CC(=O)Nc1ccc2c(c1)C(N1CC3CCC(CC3)C1)c1ccccc1-2 (configuration not stated)
A) FALSE

Q) Same thing, different compound: C[N+]1(CC2CO2)CCCCCC1 (configuration not stated)
A) FALSE

Q) Same thing, different compound: `O=C1CC[C@@H](C(=O)N[C@H]2CSSC[C@@H](C(=O)NCCc3ccccc3)NC(=O)[C@H](Cc3ccccc3)NC(=O)[C@@H]3CCCN3C(=O)[C@@H]3CCCN3C2=O)N1`
A) FALSE

Q) Same thing, different compound: `CC(C)(C)CC(C)(C)c1ccc(O)c(Cc2ccc(Cl)cc2Cl)c1`
A) TRUE
